List of log10 IC50 tested on WRN helicase (core helicase motif aa N517-P1238) (Homo sapiens (Human), UniProt Q14191).
Sequence (Q14191 517-1238): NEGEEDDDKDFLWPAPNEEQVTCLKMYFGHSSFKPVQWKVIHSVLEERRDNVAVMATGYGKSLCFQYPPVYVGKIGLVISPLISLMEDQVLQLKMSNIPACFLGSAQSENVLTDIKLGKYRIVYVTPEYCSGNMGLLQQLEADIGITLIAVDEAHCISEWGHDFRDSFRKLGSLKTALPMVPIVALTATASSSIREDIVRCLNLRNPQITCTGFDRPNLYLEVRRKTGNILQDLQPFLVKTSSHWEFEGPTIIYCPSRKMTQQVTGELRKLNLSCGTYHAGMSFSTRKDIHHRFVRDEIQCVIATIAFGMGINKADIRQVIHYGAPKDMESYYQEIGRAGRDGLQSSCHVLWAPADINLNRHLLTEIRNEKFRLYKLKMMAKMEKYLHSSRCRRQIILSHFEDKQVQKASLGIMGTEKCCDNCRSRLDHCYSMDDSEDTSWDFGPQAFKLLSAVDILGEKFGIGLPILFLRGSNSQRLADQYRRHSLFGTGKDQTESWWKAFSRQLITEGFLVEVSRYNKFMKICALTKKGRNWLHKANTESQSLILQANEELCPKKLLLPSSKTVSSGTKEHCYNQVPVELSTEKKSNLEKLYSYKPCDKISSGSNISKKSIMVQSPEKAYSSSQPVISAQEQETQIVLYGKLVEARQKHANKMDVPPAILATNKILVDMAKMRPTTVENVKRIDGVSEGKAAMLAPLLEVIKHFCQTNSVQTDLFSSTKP
The base-10 logarithm of IC50, taken with IC50 in nM, is what appears here.

Req: Reported log10 IC50 for WRN helicase (core helicase motif aa N517-P1238) (Homo sapiens (Human), UniProt Q14191), given Cc1ncnc(C(=O)N2CCN(c3c4n(c5nc(C6=CCOCC6)nn5c3=O)[C@@H](C(=O)Nc3ccc(C(F)(F)F)cc3Cl)C[C@@H]4C)CC2)c1O [Example 14C] ?
Resp: 2.00

Req: Under WRN helicase (core helicase motif aa N517-P1238) (Homo sapiens (Human), UniProt Q14191): log10 IC50 value of Cc1cc(C(F)(F)F)ccc1NC(=O)[C@H]1C[C@@H](C)c2c(N3CCN(C(=O)c4ncccc4O)CC3)c(=O)n3nc(C4=CCOCC4)nc3n21 [Example 15A] ?
Resp: 1.70

Req: # query: log10 IC50 | item Cc1ncnc(C(=O)N2CCN(c3c4n(c5nc(C6=CCOCC6)nn5c3=O)[C@@H](C(=O)Nc3ccc(C(F)(F)F)cc3Cl)C[C@H]4C)C[C@H]2C)c1O [Example 18A] | system: WRN helicase (core helicase motif aa N517-P1238) (Homo sapiens (Human), UniProt Q14191)
Resp: 1.70

Req: What is its log10 IC50 for WRN helicase (core helicase motif aa N517-P1238) (Homo sapiens (Human), UniProt Q14191)? Entry: CC(=O)N1CCN(c2c3n(c4nc(-c5ccccc5)nn4c2=O)C(C(=O)Nc2ccc(C(F)(F)F)cc2)CC3)CC1 (racemic)
Resp: 2.85

Req: Notebook: pull reported log10 IC50 for WRN helicase (core helicase motif aa N517-P1238) (Homo sapiens (Human), UniProt Q14191), entry Cc1ncnc(C(=O)N2CCN(c3c4n(c5nc(C6=CCOCC6)nn5c3=O)[C@H](C(=O)Nc3ccc(C(F)(F)F)cc3Cl)C[C@H]4C)CC2)c1O [Example 14D]
Resp: 3.00

Req: Can you look up log10 IC50 on WRN helicase (core helicase motif aa N517-P1238) (Homo sapiens (Human), UniProt Q14191) for Cc1cc(C(F)(F)F)ccc1NC(=O)[C@@H]1C[C@H](C)c2c(N3CCN(C(=O)c4ncccc4O)CC3)c(=O)n3nc(C4=CCOCC4)nc3n21 [Example 15B] ?
Resp: 4.26

Req: Request: log10 IC50, test system WRN helicase (core helicase motif aa N517-P1238) (Homo sapiens (Human), UniProt Q14191), entry C[C@@H]1C[C@H](C(=O)Nc2ccc(C(F)(F)F)cc2Cl)n2c1c(N1CCN(C(=O)c3ncccc3O)CC1)c(=O)n1nc(C3=CCOCC3)nc21
Resp: 1.70

Req: Notebook: pull reported log10 IC50 for WRN helicase (core helicase motif aa N517-P1238) (Homo sapiens (Human), UniProt Q14191), entry Cc1cc(F)c(O)c(C(=O)N2CCN(c3c4n(c5nc(N6CCOCC6)nn5c3=O)[C@@H](C(=O)Nc3ccc(C(F)(F)F)cc3Cl)C[C@H]4C)CC2)n1
Resp: 1.48

Req: WRN helicase (core helicase motif aa N517-P1238) (Homo sapiens (Human), UniProt Q14191) / log10 IC50 / Cc1ncnc(C(=O)N2CCN(c3c4n(c5nc(C6=CCOCC6)nn5c3=O)[C@@H](C(=O)Nc3ccc(C(F)(F)F)cc3Cl)C[C@@H]4C)C[C@H]2C)c1O [Example 18D] : value?
Resp: 2.00

Req: Which measured log10 IC50 belongs to Cc1ncnc(C(=O)N2CCN(c3c4n(c5nc(C6=CCOCC6)nn5c3=O)[C@H](C(=O)Nc3ccc(C(F)(F)F)cc3Cl)C[C@@H]4C)C[C@H]2C)c1O [Example 18B] , tested on WRN helicase (core helicase motif aa N517-P1238) (Homo sapiens (Human), UniProt Q14191)?
Resp: 4.56

Req: For the record C[C@@H]1C[C@H](C(=O)Nc2ccc(C(F)(F)F)cc2Cl)n2c1c(N1CCN(C(=O)c3nn(C)c(=O)[nH]3)CC1)c(=O)n1nc(C3=CCOCC3)nc21 , what value of log10 IC50 is listed for WRN helicase (core helicase motif aa N517-P1238) (Homo sapiens (Human), UniProt Q14191)?
Resp: 1.70
